Record type: pIC50 measurement. Applies to: PRC2 containing wt EZH2 (Homo sapiens (Human))
Give only the number. pIC50 is defined as minus log10 of concentration in molar units.

Recorded pIC50, per entry:
CSc1cc(C)[nH]c(=O)c1CNC(=O)c1cc(Cl)c2c(c1C)OC(C)(C1CCN(CC(F)(F)F)CC1)O2 (single isomer, unassigned) [Example 14-Enantiomer 1]
10.43
CSc1cc(C)[nH]c(=O)c1CNC(=O)c1cc(Cl)c2c(c1C)OC(C)(C1CCC(NC3(CF)COC3)CC1)O2 (single isomer, unassigned) [Example 11 (geometric isomer 2)]
9.74
CSc1cc(C)[nH]c(=O)c1CNC(=O)c1cc(Cl)c2c(c1C)OC(C)(C1CCC(N3CC(OC(F)F)C3)CC1)O2 (single isomer, unassigned)
10.04

Q) Please give the measured pIC50 for this compound: CSc1cc(Cl)[nH]c(=O)c1CNC(=O)c1cc(Cl)c2c(c1C)OC(C)(C1CCC(N3CC(OC(F)F)C3)CC1)O2 (single isomer, unassigned)
A) 8.82

Q) Please give the measured pIC50 for this compound: CSc1cc(C)[nH]c(=O)c1CNC(=O)c1cc(Cl)c2c(c1C)OC(C)(C1CCC(N3CC(F)(F)C3)CC1)O2 (single isomer, unassigned) [Example 7-Enantiomer 1]
A) 8.07

Q) Please give the measured pIC50 for this compound: "CSc1nc(C)[nH]c(=O)c1CNC(=O)c1cc(Cl)c2c(c1C)O[C@@](C)([C@H]1CC[C@H](N(C)C)CC1)O2"
A) 10.27

Q) Please give the measured pIC50 for this compound: CSc1cc(C)[nH]c(=O)c1CNC(=O)c1cc(Cl)c2c(c1C)OC(C)(C1CCC(NC3(C(F)(F)F)COC3)CC1)O2 (single isomer, unassigned) [Example 6-Enantiomer 1]
A) 8.74

Q) Please give the measured pIC50 for this compound: "CSc1cc(C)[nH]c(=O)c1CNC(=O)c1cc(Cl)c2c(c1C)O[C@@](C)([C@H]1CC[C@H](N(C)C)CC1)O2"
A) 10.42

Q) Please give the measured pIC50 for this compound: COC1CN(C2CCC(C3(C)Oc4c(Cl)cc(C(=O)NCc5c(SC)cc(C)[nH]c5=O)c(C)c4O3)CC2)C1 (single isomer, unassigned)
A) 10.37

====

system-under-test: PRC2 containing wt EZH2 (Homo sapiens (Human))
Sequence (Q15910 whole entry): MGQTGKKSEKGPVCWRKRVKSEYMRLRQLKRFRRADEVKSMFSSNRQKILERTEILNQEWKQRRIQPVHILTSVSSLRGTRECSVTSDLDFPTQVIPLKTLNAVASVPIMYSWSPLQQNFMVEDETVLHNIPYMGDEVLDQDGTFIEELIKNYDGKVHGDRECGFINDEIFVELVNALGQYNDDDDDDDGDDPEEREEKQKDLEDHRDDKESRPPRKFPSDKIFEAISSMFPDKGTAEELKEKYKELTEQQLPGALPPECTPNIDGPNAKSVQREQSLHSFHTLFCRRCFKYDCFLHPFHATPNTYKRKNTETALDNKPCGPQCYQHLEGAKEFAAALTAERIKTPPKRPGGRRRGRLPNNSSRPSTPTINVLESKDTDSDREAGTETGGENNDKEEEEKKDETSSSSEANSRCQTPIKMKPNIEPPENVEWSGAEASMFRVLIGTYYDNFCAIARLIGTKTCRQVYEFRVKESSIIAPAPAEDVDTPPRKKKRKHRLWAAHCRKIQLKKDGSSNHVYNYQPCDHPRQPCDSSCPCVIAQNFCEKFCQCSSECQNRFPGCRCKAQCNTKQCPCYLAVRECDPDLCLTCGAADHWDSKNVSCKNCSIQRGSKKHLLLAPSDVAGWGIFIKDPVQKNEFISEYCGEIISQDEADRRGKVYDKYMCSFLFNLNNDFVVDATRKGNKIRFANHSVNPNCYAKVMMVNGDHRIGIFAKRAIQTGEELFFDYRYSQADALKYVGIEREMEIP
Sequence (O75530 whole entry partner): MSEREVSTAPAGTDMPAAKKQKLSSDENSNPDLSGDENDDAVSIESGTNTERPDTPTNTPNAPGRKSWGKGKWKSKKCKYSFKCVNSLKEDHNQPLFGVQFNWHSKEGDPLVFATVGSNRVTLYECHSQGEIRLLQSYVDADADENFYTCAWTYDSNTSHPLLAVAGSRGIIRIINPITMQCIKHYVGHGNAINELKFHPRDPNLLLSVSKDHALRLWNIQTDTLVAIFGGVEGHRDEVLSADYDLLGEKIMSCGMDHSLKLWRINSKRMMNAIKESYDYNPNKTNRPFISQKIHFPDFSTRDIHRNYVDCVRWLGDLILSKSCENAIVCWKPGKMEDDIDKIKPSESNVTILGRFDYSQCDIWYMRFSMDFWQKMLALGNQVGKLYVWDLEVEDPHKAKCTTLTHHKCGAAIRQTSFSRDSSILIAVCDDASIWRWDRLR
Sequence (Q15022 whole entry partner): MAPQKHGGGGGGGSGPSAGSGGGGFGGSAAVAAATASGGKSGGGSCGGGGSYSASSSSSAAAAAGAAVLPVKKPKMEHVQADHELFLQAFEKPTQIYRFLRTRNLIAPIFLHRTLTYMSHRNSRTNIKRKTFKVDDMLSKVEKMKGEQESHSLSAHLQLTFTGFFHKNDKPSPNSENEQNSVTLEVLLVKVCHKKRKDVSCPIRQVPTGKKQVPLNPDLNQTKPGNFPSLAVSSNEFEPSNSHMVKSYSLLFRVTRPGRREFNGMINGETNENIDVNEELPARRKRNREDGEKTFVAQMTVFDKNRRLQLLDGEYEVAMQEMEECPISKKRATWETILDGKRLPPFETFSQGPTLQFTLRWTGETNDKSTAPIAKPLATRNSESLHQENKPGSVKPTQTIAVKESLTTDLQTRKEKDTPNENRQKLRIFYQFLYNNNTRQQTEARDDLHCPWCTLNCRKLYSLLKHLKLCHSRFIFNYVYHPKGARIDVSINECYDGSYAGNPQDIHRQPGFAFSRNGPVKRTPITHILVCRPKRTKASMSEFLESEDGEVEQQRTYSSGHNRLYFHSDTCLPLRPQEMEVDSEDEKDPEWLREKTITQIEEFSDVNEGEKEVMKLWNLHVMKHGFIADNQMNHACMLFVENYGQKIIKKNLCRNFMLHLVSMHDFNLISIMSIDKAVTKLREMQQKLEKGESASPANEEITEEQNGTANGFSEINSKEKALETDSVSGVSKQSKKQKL
Sequence (Q09028 whole entry partner): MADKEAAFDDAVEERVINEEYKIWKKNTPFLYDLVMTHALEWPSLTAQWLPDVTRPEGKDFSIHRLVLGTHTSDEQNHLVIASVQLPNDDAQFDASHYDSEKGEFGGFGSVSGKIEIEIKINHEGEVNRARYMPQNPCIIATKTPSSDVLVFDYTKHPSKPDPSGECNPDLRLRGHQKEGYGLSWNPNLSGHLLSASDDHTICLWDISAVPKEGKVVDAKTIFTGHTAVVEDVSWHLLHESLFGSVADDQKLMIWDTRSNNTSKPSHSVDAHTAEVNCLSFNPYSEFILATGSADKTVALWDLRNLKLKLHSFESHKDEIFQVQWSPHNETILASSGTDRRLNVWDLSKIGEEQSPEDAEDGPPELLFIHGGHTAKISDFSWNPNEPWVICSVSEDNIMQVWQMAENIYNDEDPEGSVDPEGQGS
Sequence (Q6ZN18 whole entry partner): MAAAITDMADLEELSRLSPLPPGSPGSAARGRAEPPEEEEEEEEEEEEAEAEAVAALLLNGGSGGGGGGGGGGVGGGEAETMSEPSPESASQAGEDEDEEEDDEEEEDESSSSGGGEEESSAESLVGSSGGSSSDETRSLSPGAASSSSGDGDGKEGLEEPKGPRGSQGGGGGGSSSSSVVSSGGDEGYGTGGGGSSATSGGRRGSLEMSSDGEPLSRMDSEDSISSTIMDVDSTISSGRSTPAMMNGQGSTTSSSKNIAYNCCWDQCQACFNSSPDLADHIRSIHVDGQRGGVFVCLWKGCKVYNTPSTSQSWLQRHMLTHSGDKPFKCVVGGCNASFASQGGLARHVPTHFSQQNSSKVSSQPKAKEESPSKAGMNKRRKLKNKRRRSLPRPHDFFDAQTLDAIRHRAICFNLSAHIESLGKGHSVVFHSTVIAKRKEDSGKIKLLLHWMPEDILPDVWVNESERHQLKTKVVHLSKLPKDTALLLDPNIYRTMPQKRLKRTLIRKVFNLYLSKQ
assay-notes: EZH2 biochemical assay (IC50), 3H-SAM incorporation into biotinylated H3 peptide
assay-context: 30 pM PRC2 with wt EZH2, 3-5 h pre-incubation
measured-attribute: IC50 (nM)
Give the value, in units of nM, as a plain number.

Recorded IC50, per entry:
CSc1cc(C)[nH]c(=O)c1CNC(=O)c1cc(Cl)c2c(c1C)OC(C)(C1CCN(CC(F)(F)F)CC1)O2 (single isomer, unassigned) [Example 14-Enantiomer 2]
7
CSc1cc(C)[nH]c(=O)c1CNC(=O)c1cc(Cl)c2c(c1C)OC(C)(C1CCC(NC3(CF)COC3)CC1)O2 (single isomer, unassigned) [Example 11 (geometric isomer 1)]
0.14
CSc1cc(C)[nH]c(=O)c1CNC(=O)c1cc(Cl)c2c(c1C)OC(C)(C1CCC(N3CC(F)(F)C3)CC1)O2 (single isomer, unassigned) [Example 7-Enantiomer 2]
0.12
CSc1cc(C)[nH]c(=O)c1CNC(=O)c1cc(Cl)c2c(c1C)OC(C)(C1CCC(NC3(C(F)(F)F)COC3)CC1)O2 (single isomer, unassigned) [Example 6-Enantiomer 2]
0.14

We now examine a further compound.
Q) Please give the measured IC50 for this compound: Cc1cc(Cl)c(CNC(=O)c2cc(Cl)c3c(c2C)OC(C)(C2CCN(CC(F)(F)F)CC2)O3)c(=O)[nH]1 (single isomer, unassigned) [Example 16-Enantiomer 1]
A) 0.31
